tested on: Hek293T; test: Primary qHTS to identify gynecologic anti-cancer compounds using libraries of approved drugs and bioactive compounds (AID 1345084); details: Gynecologic cancer cell panel viability, ATPlite luminescence, 48 h, control line for the selectivity index; series mostly up to 57.5 µM; further: nearly all actives have a fitted effect of over 55% in size
Results filed as inconclusive are left out. The source made the active and inactive calls. The call rests on the fitted dose curve; in most records, active means well fitted cell-killing curve with a large enough effect; inconclusive means small, poorly fitted or top-dose-only effect, or effect the other way; inactive means flat fitted curve, though single readings scatter.
Response enum: active, inactive

Solved cases (5 shown):
>>> label_class("O=C1OC2(c3ccccc31)c1cc(I)c(O)c(I)c1Oc1c2cc(I)c(O)c1I")
"inactive"
>>> label_class("CC[C@@]1(O)C(=O)OCc2c1cc1n(c2=O)Cc2c-1nc1ccccc1c2/C=N/OC(C)(C)C")
"active"
>>> label_class("N=C(N)c1ccc(OCCCOc2ccc(C(=N)N)cc2)cc1")
"inactive"
>>> label_class("CCCOc1ccc2c(c1)CC[C@@H]1[C@@H]2CC[C@]2(C)C(OC)CC[C@@H]12 (stereo not given in full)")
"inactive"
>>> label_class("CC(C)(C)CC(=O)OCC(=O)[C@@]1(O)CC[C@H]2[C@@H]3CCC4=CC(=O)C=C[C@]4(C)[C@H]3[C@@H](O)C[C@@]21C")
"inactive"

Enquiry: Would you mind telling me which call this test gave CC1(C)S[C@@H]2[C@H](NC(=O)C(c3ccccc3)S(=O)(=O)O)C(=O)N2[C@H]1C(=O)O (stereo not given in full) ?
Return: inactive

Enquiry: What did this assay record as the result for `CC(=O)OCC(=O)Nc1cc(C#N)cc(NC(=O)COC(C)=O)c1Cl` ?
Return: inactive

Enquiry: Tell me the assay call for `C1N2CN3CN1CN(C2)C3` please.
Return: inactive

Enquiry: Recorded call for `NS(=O)(=O)c1cc(C(=O)NN2C[C@H]3[C@H]4CCC(C4)[C@H]3C2)ccc1Cl` ?
Return: inactive

Enquiry: Query: recorded result category for `Oc1cccc2[nH]ccc12` in this test
Return: inactive
